Recorded Kd by entry
Target: E3 ubiquitin-protein ligase CBL-B (Homo sapiens)
Sequence (Q13191 whole entry, the tested form may be a part): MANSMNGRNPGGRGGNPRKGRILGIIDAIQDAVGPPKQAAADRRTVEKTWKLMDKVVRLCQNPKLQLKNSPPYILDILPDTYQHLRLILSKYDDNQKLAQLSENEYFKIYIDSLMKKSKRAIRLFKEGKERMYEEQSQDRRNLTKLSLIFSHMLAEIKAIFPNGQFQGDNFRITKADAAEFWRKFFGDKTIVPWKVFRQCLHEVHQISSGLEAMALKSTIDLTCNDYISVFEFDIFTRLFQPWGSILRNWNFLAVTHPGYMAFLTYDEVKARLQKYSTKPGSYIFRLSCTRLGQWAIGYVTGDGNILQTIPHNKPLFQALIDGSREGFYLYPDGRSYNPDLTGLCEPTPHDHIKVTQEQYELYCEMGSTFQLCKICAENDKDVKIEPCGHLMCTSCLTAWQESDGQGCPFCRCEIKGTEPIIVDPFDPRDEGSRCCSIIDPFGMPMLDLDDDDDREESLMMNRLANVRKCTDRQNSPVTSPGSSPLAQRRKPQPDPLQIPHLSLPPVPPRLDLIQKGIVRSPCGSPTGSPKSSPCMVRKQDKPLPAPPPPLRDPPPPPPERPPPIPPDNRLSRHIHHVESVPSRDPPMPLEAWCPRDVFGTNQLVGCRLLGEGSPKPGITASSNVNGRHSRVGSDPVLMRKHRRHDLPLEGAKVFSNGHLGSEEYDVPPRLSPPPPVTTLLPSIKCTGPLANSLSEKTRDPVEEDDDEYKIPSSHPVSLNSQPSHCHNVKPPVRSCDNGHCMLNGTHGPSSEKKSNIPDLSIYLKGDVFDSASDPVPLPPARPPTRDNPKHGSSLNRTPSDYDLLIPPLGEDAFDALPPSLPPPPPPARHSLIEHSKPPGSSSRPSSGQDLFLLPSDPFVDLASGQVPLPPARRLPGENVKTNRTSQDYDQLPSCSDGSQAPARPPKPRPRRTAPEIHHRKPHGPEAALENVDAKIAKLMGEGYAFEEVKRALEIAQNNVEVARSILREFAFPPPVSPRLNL
Experiment: Binding affinity towards N-terminal biotinylated Avi-tagged human CBL-B (36 to 427 residues) measured by surface plasmon resonance assay

Recorded results for 2 compounds are shown here.
[[record]]
compound = "C[C@H](Cc1nncn1C)c1cccc(N2Cc3c(cc(N[C@H]4CCNC4)cc3C(F)(F)F)C2=O)c1"
experimental_target = "E3 ubiquitin-protein ligase CBL-B (Homo sapiens)"
meas_value = "< 100 nM"

[[record]]
compound = "CC(Sc1nncn1C)c1ccc(F)c(NC(=O)c2ccc3ccccc3n2)c1 (stereo not drawn)"
experimental_target = "E3 ubiquitin-protein ligase CBL-B (Homo sapiens)"
meas_value = "> 10000 nM"


-- ask Look at this compound and give its reported Kd. Cn1cnnc1C(F)(F)[C@](C)(F)c1cccc(N2Cc3c(cc(CN4CC(F)C4)cc3C(F)(F)F)C2=O)c1
-- reply < 100 nM

----------
Experiment: Induction of anti-CD3 antibodies-stimulated human exhausted CD4+ T cell activation assessed fold increase in CTLA4 expression measured by flow cytometry analysis
Assay type: functional, T cell line
Readout: fold change (FC)

Recorded results for 5 molecules are shown here.
[[record]]
mol = "C[C@@H](c1cc2c(c(C(F)(F)F)c1)CN(c1cccc(C3(Cc4nncn4C)COC3)c1)C2=O)N1CC[C@H](F)C1"
meas_value = "<=1.4"

[[record]]
mol = "COC1CN(Cc2cc3c(c(C(F)(F)F)c2)CN(c2cccc([C@@](C)(F)C(F)(F)c4nncn4C)c2)C3=O)C1"
meas_value = ">1.61"

[[record]]
mol = "C[C@H](Cc1nncn1C)c1cccc(N2Cc3c(cccc3C(F)(F)F)C2=O)c1.Cl"
meas_value = 1.41

[[record]]
mol = "C[C@H](Cc1nncn1C)c1cccc(NC(=O)c2cc3cc(N4CCNCC4)ccc3cn2)c1.Cl"
meas_value = 1.41

[[record]]
mol = "C[C@H](Cc1nncn1C)c1cccc(NC(=O)c2cccc(CCO)n2)c1"
meas_value = "<=1.4"


-- ask Look at this molecule and give its reported fold change (FC). Cn1cnnc1CC1(c2cccc(NC(=O)c3nc4c(C(F)(F)F)cccc4[nH]3)c2)COC1
-- reply >1.61

-- ask Look at this molecule and give its reported fold change (FC). C[C@H](Sc1nncn1C)c1cccc(NC(=O)c2cc(C(=O)N3CC[C@H](O)C3)ccn2)c1
-- reply <=1.4

-- ask Look at this molecule and give its reported fold change (FC). Cn1cnnc1C(F)(F)[C@](C)(F)c1cccc(N2Cc3c(cc(C(=O)N4CC[C@H](O)C4)cc3C(F)(F)F)C2=O)c1
-- reply <=1.4

-- ask Look at this molecule and give its reported fold change (FC). C[C@H](Cc1nncn1C)c1cccc(N2Cc3c(cc(CN4CC[C@](C)(O)C4)cc3C(F)(F)F)C2=O)c1
-- reply 1.41

----------
Assay: Induction of anti-CD3/CD28 antibodies-stimulated human T cell activation at 4 uM assessed fold increase in CD25 expression measured by ELISA assay
Format: functional, T cell line
Recorded fold change (FC) by entry
Output spec: single numeric token, no unit.

[[record]]
molecule = "Cc1cc(C(=O)Nc2cccc([C@@H](C)Cc3nncn3C)c2)nc(C2CC2)n1"
meas_value = 1.01


-- ask Look at this molecule and give its reported fold change (FC). CNS(=O)(=O)c1cc(C(=O)Nc2cccc([C@H](C)Cc3nncn3C)c2)nc(C(F)(F)F)c1
-- reply 1.01

-- ask Look at this molecule and give its reported fold change (FC). C[C@H](Cc1nncn1C)c1cccc(NC(=O)c2cc3cc(N4CCNCC4)ccc3cn2)c1.Cl
-- reply 1.01

-- ask Look at this molecule and give its reported fold change (FC). C[C@H](Cc1nocc1C(F)(F)F)c1cccc(N2Cc3c(cc(C(=O)N4CC[C@H](O)C4)cc3C(F)(F)F)C2=O)c1
-- reply 1.31

-- ask Look at this molecule and give its reported fold change (FC). Cn1cnnc1[C@@H](F)[C@](C)(F)c1cccc(N2Cc3c(cccc3C(F)(F)F)C2=O)c1 (single isomer, unassigned)
-- reply 1.01

-- ask Look at this molecule and give its reported fold change (FC). C[C@H](Cc1nncn1C)c1cccc(NC(=O)c2cnn3cccnc23)c1
-- reply 1.01

-- ask Look at this molecule and give its reported fold change (FC). C[C@H](Cc1nncn1C)c1cccc(NC(=O)c2ccc(CO)c(C3CC3)n2)c1
-- reply 1.51

Just for reference, ChEMBL document CHEMBL5050844 is where these values come from.
